experiment: Solubility measurement (DMSO solution method), McIlvaine buffer pH 4.5 or 6.8; type: physicochemical; conditions: aqueous buffer, kinetic from dmso stock; McIlvaine buffer pH 4.5; DMSO stock diluted to 250 μM; 24 h shaking at ambient temperature; read-out: solubility pH 4.5
reported_endpoint: solubility at 24 h

compound | reported_endpoint | test_result
C[C@@H]1CN(c2cc(O[C@@H](C)[C@@H]3C[C@@H](F)CN3C)nc(-c3noc4c3CCC[C@@]43CCCc4sc(N)c(C#N)c43)n2)CC2(CC2)N1 | solubility at 24 h | > 0.147 mg/mL
C[C@H](Oc1cc(-c2ccn(C[C@@H](C)O)n2)nc(-c2onc3c2CCC[C@@]32CCCc3sc(N)c(C#N)c32)n1)[C@@H]1CCCN1C | solubility at 24 h | > 0.15 mg/mL
C[C@H](Oc1cc(-c2ccn(-c3ccccc3)n2)nc(-c2noc3c2CCC[C@@]32CCCc3sc(N)c(C#N)c32)n1)[C@@H]1CCCN1C | solubility at 24 h | 0.002 mg/mL
C[C@H](Oc1cc(-c2ccn(C3COC3)n2)nc(-c2onc3c2CCC[C@@]32CCCc3sc(N)c(C#N)c32)n1)[C@@H]1CCCN1C | solubility at 24 h | > 0.135 mg/mL
C[C@H](Oc1cc(-n2ccc(C(=O)O)n2)nc(-c2noc3c2CCC[C@@]32CCCc3sc(N)c(C#N)c32)n1)[C@@H]1CCCN1C | solubility at 24 h | < 0.001 mg/mL
C[C@H](Oc1cc(-c2ccn([C@H]3CCCOC3)n2)nc(-c2noc3c2CCC[C@@]32CCCc3sc(N)c(C#N)c32)n1)[C@@H]1CCCN1C | solubility at 24 h | 0.119 mg/mL
C[C@H](Oc1cc(C2CCCO2)nc(-c2noc3c2CCC[C@@]32CCCc3sc(N)c(C#N)c32)n1)[C@@H]1CCCN1C (stereo partly shown) | solubility at 24 h | > 0.115 mg/mL
C[C@H](Oc1cc(N2CCC(N(C)C)CC2)nc(-c2noc3c2CCC[C@@]32CCCc3sc(N)c(C#N)c32)n1)[C@@H]1CCCN1C | solubility at 24 h | > 0.164 mg/mL
C[C@H](Oc1cc(N2C[C@H](C)N[C@@H](C)C2)nc(-c2onc3c2CCC[C@@]32CCCc3sc(N)c(C#N)c32)n1)[C@@H]1CCCN1C | solubility at 24 h | > 0.147 mg/mL
C[C@H](Oc1cc(N2CCOC2=O)nc(-c2noc3c2CCC[C@@]32CCCc3sc(N)c(C#N)c32)n1)[C@@H]1CCCN1C | solubility at 24 h | > 0.123 mg/mL
CO[C@H]1CCN(C)[C@@H]1[C@H](C)Oc1cc(-n2ccc(C(=O)N[C@@H]3CCOC3)n2)nc(-c2onc3c2CCC[C@@]32CCCc3sc(N)c(C#N)c32)n1 | solubility at 24 h | > 0.152 mg/mL
C[C@H](Oc1cc(N2CCN(C)C3(CC3)C2)nc(-c2onc3c2CCC[C@@]32CCCc3sc(N)c(C#N)c32)n1)[C@@H]1C[C@@H](F)CN1C | solubility at 24 h | > 0.147 mg/mL
C[C@H](Oc1cc(N2Cc3cnn(C)c3C2)nc(-c2noc3c2CCC[C@@]32CCCc3sc(N)c(C#N)c32)n1)[C@@H]1CCCN1C | solubility at 24 h | < 0.001 mg/mL

Hello, the source for this data is patent US20240174690A1, in case you need it.
